Taken from ChEMBL document CHEMBL5537149.

# test method notes: Aqueous solubility of compound at pH 7.4 by HPLC analysis
# Format: physicochemical
readout type: solubility (µM)
Numbers only, in µM.

// batch mode: one solubility value per listed entry
1. CCNc1cc(C)nc(N2CCC3(CCN(C(=O)c4cc(Cl)cc(Cl)c4)C3)C2)n1 (configuration not stated)
2. CCNc1nc(C)cc(N2CCN(C(=O)c3ccc(I)cc3)CC2)n1
3. CCNc1nc(C)cc(N2CCN(C(=O)c3cc(Cl)cc(Cl)c3)CC2)n1
4. Cc1cc(N(C)C)nc(N2CCN(C(=O)c3cc(Cl)cc(Cl)c3)CC2)n1
5. CCNc1nc(C)cc(NC2CCN(C(=O)c3cc(Cl)cc(Cl)c3)CC2)n1
6. CCNc1cc(C)nc(N2CCN(S(=O)(=O)c3ccc(Cl)nc3)CC2)n1
7. Cc1cc(N2CCN(C(=O)c3ccc(Cl)cc3)CC2)nc(NC(C)C)n1
8. CCNc1cc(C)nc(N2CCN(C(=O)c3ccc(Br)cc3)CC2)n1

Reply:
[108, 112, 108, 95, 101, 115, 115, 116]

// batch mode: one solubility value per listed entry
1. CCNc1nc(C)cc(N2CC3CCC(C2)N3C(=O)c2cc(Cl)cc(Cl)c2)n1
2. CCNc1cc(C)nc(NC2CN(C(=O)c3cc(Cl)cc(Cl)c3)C2)n1

Reply:
111
93

---

# Tested on: Chikungunya virus
# test method notes: Antiviral activity against Chikungunya virus infected in African green monkey Vero cells assessed as reduction in viral induced cell death incubated for 5 days by MTS reagent based absorbance method
# Type: functional, organism-based
# condition notes: 120 h
pEC50: −log10 of the molar value.
Threshold rule: pEC50 greater than or equal to 5 is Fulfilled; below that, Not fulfilled.

CCNc1nc(C)cc(N2CCC(NC(=O)c3cc(Cl)cc(Cl)c3)CC2)n1 : Not fulfilled
O=C(c1cc(Cl)cc(Cl)c1)N1CCN(c2nc(C(F)(F)F)nc3[nH]cnc23)CC1 : Not fulfilled
CCNc1nc(C)cc(N2CCN(C(=O)c3ccc(F)cc3)CC2)n1 : Fulfilled

Ask: Textbook exercise: given the entry CCNc1cc(C)nc(N2CCC3(CCN(C(=O)c4cc(Cl)cc(Cl)c4)C3)C2)n1 (stereo not given) , state whether its pEC50 is greater than or equal to 5.
Reply: Not fulfilled

Ask: Textbook exercise: given the entry Cc1nc(Cl)c(N)c(N2CCN(C(=O)c3ccc(Cl)cc3)CC2)n1 , state whether its pEC50 is greater than or equal to 5.
Reply: Not fulfilled

Ask: Textbook exercise: given the entry CCNc1cc(C)nc(N2CCN(S(=O)(=O)c3cccs3)CC2)n1 , state whether its pEC50 is greater than or equal to 5.
Reply: Not fulfilled

Ask: Textbook exercise: given the entry CCNc1cc(C)nc(N2CC3CCC(C2)N3C(=O)c2ccc(Cl)cc2)n1 , state whether its pEC50 is greater than or equal to 5.
Reply: Not fulfilled

Ask: Textbook exercise: given the entry CCNc1nc(C)cc(N2CCN(C(=O)c3cc(Cl)cc(Cl)c3)CC2)n1 , state whether its pEC50 is greater than or equal to 5.
Reply: Fulfilled

Ask: Textbook exercise: given the entry CCNc1cc(C)nc(N2CCC3(CC2)CC(=O)c2ccccc2O3)n1 , state whether its pEC50 is greater than or equal to 5.
Reply: Not fulfilled

Ask: Textbook exercise: given the entry Cc1cc(N2CCN(C(=O)c3cc(Cl)cc(Cl)c3)CC2)nc(N(C)C)n1 , state whether its pEC50 is greater than or equal to 5.
Reply: Fulfilled

Ask: Textbook exercise: given the entry CCNc1nc(C)cc(N2CCN(C(=O)c3ccc(C)cc3)CC2)n1 , state whether its pEC50 is greater than or equal to 5.
Reply: Fulfilled

Ask: Textbook exercise: given the entry Cc1cc(N2CCN(S(=O)(=O)c3ccc(F)cc3)CC2)nc(N2CCCC2)n1 , state whether its pEC50 is greater than or equal to 5.
Reply: Not fulfilled

Ask: Textbook exercise: given the entry CCNc1nc(N2CCN(C(=O)c3cc(Cl)cc(Cl)c3)CC2)cc(C(F)(F)F)n1 , state whether its pEC50 is greater than or equal to 5.
Reply: Not fulfilled
